All figures here come from patent US11059780B2.

# TARGET OR SYSTEM: human orexin type 2 receptor (hOX2R) (Homo sapiens, UniProt O43614)
# Construct: expressed in transfected cells
# Sequence (O43614 whole entry): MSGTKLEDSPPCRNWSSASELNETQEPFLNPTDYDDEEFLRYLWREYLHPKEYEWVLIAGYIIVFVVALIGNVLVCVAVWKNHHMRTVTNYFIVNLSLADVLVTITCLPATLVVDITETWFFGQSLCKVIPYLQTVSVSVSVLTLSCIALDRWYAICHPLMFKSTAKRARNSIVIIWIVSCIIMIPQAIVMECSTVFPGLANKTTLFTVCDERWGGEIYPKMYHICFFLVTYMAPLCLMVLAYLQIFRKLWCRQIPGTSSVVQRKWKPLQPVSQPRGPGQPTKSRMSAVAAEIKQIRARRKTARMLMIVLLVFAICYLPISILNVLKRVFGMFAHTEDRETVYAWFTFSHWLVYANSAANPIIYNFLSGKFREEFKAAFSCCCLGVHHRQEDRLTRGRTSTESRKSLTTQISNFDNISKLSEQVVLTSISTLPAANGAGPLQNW
# ASSAY EXPLANATION: Measurement of orexin type 2 receptor agonist activity (Fluo-4 calcium fluorescence, CHO cells forcibly expressing human OX2 receptor)
# Assay type: cell-based
# MEASUREMENT CONDITIONS: test compound 3 μM, DMSO = 0%, orexin A (human) 10 nM = 100%
REPORTED PROPERTY: OX2R agonist activity (3 μM, %)

CO[C@@H]1CN(C(=O)c2cc(C)ccc2C)C[C@H]1Oc1cccc(NS(=O)(=O)N2CCC23COC3)c1 (relative stereo) ... 77
COCC1CCCN1S(=O)(=O)Nc1cccc(O[C@@H]2CN(C(=O)c3cc(C)ccc3C)C[C@H]2OC)c1 (relative stereo) ... 87
CO[C@@H]1CN(C(=O)c2cc(C)ccc2C)C[C@H]1Oc1ccc(F)c(CS(=O)(=O)N2CCCC2c2ccccn2)c1 (relative stereo) ... 67
CO[C@@H]1CN(C(=O)c2cc(C)ccc2C)C[C@H]1Oc1cccc(NS(=O)(=O)N2CCCC2c2ccncc2)c1 (relative stereo) ... 83
CO[C@@H]1CN(C(=O)c2cc(C)ccc2C)C[C@H]1Oc1cccc(CS(=O)(=O)N2CCCC2c2cccnc2)c1 (relative stereo) ... 77
CO[C@@H]1CN(C(=O)c2cc(C)ccc2C)C[C@H]1Oc1cccc(NS(=O)(=O)N2CC3CC3C2)c1 (stereo partly drawn) ... 84
CO[C@@H]1CN(C(=O)c2cc(C)ccc2C)C[C@H]1Oc1cccc(NS(=O)(=O)N2CCCC2Cc2cccnc2)c1 (relative stereo) ... 82
CO[C@@H]1CN(C(=O)c2cc(C)ccc2C)C[C@H]1Oc1cccc(CS(=O)(=O)N2CCCC2c2ccncc2)c1 (relative stereo) ... 75
CCc1ccccc1C(=O)N1C[C@@H](OC)[C@H](Oc2cccc(NS(=O)(=O)N3CC4CC4C3)c2)C1 (stereo partly drawn) ... 96
CO[C@@H]1CN(C(=O)c2cc(C)ccc2C)C[C@H]1Oc1cccc(CS(=O)(=O)N2CCCC2c2nccs2)c1 (relative stereo) ... 79
CO[C@@H]1CN(C(=O)c2cc(C)ccc2C)C[C@H]1Oc1cccc(NS(=O)(=O)N2CCC(c3cccnc3)C2)c1 (relative stereo) ... 99
COc1ccccc1C1CCCN1S(=O)(=O)Cc1cccc(O[C@@H]2CN(C(=O)c3cc(C)ccc3C)C[C@H]2OC)c1 (relative stereo) ... 75

----------
# TARGET OR SYSTEM: human orexin type 2 receptor (hOX2R) (Homo sapiens, UniProt O43614)
# Construct: expressed in transfected cells
# ASSAY EXPLANATION: Measurement of orexin type 2 receptor agonist activity (Fluo-4 calcium fluorescence, CHO cells forcibly expressing human OX2 receptor)
# Type: cell-based
# MEASUREMENT CONDITIONS: test compound 3 μM, DMSO = 0%, orexin A (human) 10 nM = 100%
REPORTED PROPERTY: OX2R agonist activity (3 μM, %)

CO[C@@H]1CN(C(=O)c2cc(C)ccc2C)C[C@H]1Oc1cccc(C(C)S(=O)(=O)N2CCC[C@H]2c2ccccn2)c1 (stereo partly drawn) ... 88
CO[C@@H]1CN(C(=O)c2cc(C)ccc2C)C[C@H]1Oc1cccc(CS(=O)(=O)N(C)C2CCOCC2)c1 (relative stereo) ... 94
COC1CN(C(=O)c2cc(C)ccc2C)CC1Oc1cccc(NS(=O)(=O)N2CC[C@@H]3C[C@H]32)c1 (relative stereo) ... 74
CO[C@@H]1CN(C(=O)c2cc(C)ccc2C)C[C@H]1Oc1cccc(CS(=O)(=O)N(C)C2CCOC(C)(C)C2)c1 (relative stereo) ... 92
CCc1cccc(C)c1C(=O)N1C[C@@H](OC)[C@H](Oc2cccc(C(F)S(=O)(=O)N(C)C3CCOCC3)c2)C1 (relative stereo) ... 99
CO[C@@H]1CN(C(=O)c2cc(C)ccc2C)C[C@H]1Oc1cccc(NS(=O)(=O)N(C)CC2CCOC2)c1 (relative stereo) ... 74
CO[C@@H]1CN(C(=O)c2c(C)cccc2C2CC2)C[C@H]1Oc1cccc(OS(=O)(=O)N(C)C2CCOCC2)c1 (relative stereo) ... 97
CO[C@@H]1CN(C(=O)c2cc(C)ccc2C)C[C@H]1Oc1cccc(CS(=O)(=O)N2CCCC2c2ccc(C)nc2C)c1 (relative stereo) ... 102
CO[C@@H]1CN(C(=O)c2cc(C)ccc2C)C[C@H]1Oc1cccc(NS(=O)(=O)N2CCC23CCOC3)c1 (stereo partly drawn) ... 68

[1] CO[C@@H]1CN(C(=O)c2cc(C)ccc2C)C[C@H]1Oc1cccc(CS(=O)(=O)N2CCCC2c2ccc(C)nc2)c1 (relative stereo)
[2] COc1cccc(C)c1C(=O)N1C[C@@H](OC)[C@H](Oc2cccc(NS(=O)(=O)N3CC4CC4C3)c2)C1 (stereo partly drawn)
[3] CO[C@@H]1CN(C(=O)C(F)(F)c2ccccc2)C[C@H]1Oc1cccc(CS(=O)(=O)N(C)C2CCOCC2)c1 (relative stereo)
Prompt: Put the entries in order of OX2R agonist activity (3 μM, %), starting with the largest number. Lab note: final answer is the ordered label list.
Completion: 2, 1, 3
(2: 114%, 1: 77%, 3: 45%)
